STUDY TARGET: Trp-p8 (Homo sapiens, UniProt Q7Z2W7, T58I)
Construct: expressed in transfected cells; host or cells: CHO (Chinese Hamster Ovary) cells
Sequence (Q7Z2W7 whole entry T58I): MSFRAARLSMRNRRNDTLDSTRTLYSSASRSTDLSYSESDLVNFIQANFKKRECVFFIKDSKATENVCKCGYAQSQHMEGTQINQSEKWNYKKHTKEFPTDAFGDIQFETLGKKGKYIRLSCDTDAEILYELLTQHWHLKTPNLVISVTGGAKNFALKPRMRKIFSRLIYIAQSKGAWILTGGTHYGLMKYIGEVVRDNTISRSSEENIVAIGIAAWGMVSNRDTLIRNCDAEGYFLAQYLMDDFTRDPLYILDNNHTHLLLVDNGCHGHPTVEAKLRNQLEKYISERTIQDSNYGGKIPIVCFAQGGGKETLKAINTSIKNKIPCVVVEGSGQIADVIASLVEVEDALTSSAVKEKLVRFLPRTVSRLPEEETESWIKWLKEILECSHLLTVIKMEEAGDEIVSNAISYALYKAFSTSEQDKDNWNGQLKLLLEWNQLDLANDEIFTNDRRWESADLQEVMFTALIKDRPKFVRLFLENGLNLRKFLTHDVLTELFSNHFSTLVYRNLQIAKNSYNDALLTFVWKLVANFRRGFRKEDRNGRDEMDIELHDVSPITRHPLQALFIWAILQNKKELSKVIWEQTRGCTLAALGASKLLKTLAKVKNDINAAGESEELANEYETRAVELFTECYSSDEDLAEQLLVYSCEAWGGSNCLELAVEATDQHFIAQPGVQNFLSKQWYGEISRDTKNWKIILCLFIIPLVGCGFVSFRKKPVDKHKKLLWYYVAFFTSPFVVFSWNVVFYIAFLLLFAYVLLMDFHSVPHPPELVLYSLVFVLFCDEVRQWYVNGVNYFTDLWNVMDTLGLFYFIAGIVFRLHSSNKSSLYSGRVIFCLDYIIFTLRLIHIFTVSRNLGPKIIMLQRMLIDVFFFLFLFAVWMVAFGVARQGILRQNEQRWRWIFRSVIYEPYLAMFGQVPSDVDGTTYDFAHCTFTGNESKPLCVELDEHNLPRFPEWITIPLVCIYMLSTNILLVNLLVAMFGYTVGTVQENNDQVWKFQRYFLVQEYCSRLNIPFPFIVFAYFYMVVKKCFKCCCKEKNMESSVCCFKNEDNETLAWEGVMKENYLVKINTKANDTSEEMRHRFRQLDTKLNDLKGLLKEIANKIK
ASSAY: ATP viability assay with CHO/Trp-p8 cells at 37° C.
Assay type: cell-based
CONDITION SET: ATP viability assay; read-out: CHO/Trp-p8 EC50
RECORDED METRIC: EC50 (nM)
Dear colleague, please return just the value in nM, with no unit written.

// query State the measured EC50 (Trp-p8 (Homo sapiens, UniProt Q7Z2W7, T58I)) of COc1ccc2c(c1)n(CCN)c(=O)n2C(=O)[C@@H]1C[C@H](C)CC[C@H]1C(C)C [Compound I]
// result 3

// query State the measured EC50 (Trp-p8 (Homo sapiens, UniProt Q7Z2W7, T58I)) of CC(C)[C@@H]1CC[C@@H](C)C[C@H]1C(=O)Nc1cc(-c2ccccc2)nn1CCN [III]
// result 10

// query State the measured EC50 (Trp-p8 (Homo sapiens, UniProt Q7Z2W7, T58I)) of CC(C)[C@@H]1CC[C@@H](C)C[C@H]1C(=O)n1c(=O)n(CCN)c2ccccc21 [II]
// result 10
